Hey, just so you know, these numbers are from ChEMBL document CHEMBL3885881.

Form field: LYMPHOCYTE (one value per entry).
Species: Rattus norvegicus
Test: DrugMatrix - Regimen: Daily Repeat
Type: toxicity, organism-based, Sprague-Dawley
Design: regimen Daily Repeat, gender Male, age 6-8 weeks
Conditions: in vivo, po, 0 mg/kg, 72 h, tissue Blood, route oral GAVAGE, dose level Control, time 3 day, […]

{"columns": ["compound", "LYMPHOCYTE"],
 "data": [
  ["CCCCCCCCCc1ccc(O)cc1", "88.67%"],
  ["CC1=C(/C=C/C(C)=C/C=C/C(C)=C\\C(=O)O)C(C)(C)CCC1", "89.17%"],
  ["COCc1c(C(C)C)nc(C(C)C)c(/C=C/[C@@H](O)C[C@@H](O)CC(=O)O)c1-c1ccc(F)cc1", "88.67%"],
  ["COC1=CC(=O)C[C@@H](C)[C@]12Oc1c(Cl)c(OC)cc(OC)c1C2=O", "88.83%"],
  ["CSc1ccc2c(c1)N(CCC1CCCCN1C)c1ccccc1S2 (configuration not stated)", "89.5%"],
  ["CN(C)CCCC1(c2ccc(F)cc2)OCc2cc(C#N)ccc21 (configuration not stated)", "87.83%"],
  ["CC(=O)[C@H]1CC[C@H]2[C@@H]3CCC4=CC(=O)CC[C@]4(C)[C@H]3CC[C@]12C", "87.83%"]
]}

----------
Organism: Rattus norvegicus
Assay: DrugMatrix - Regimen: Daily Repeat
Assay type: toxicity, organism-based, Sprague-Dawley
Set-up: regimen Daily Repeat, gender Male, age 6-8 weeks
Settings: in vivo, po, 0 mg/kg, 72 h, tissue Plasma, route oral GAVAGE, dose level Control, time 3 day, vehicle .5 % CMC
quantity.kind: BLOOD UREA NITROGEN (mg/dL)

{"columns": ["molecule", "observed"],
 "data": [
  ["CCOC(=O)OC(C)OC1=C(C(=O)Nc2ccccn2)N(C)S(=O)(=O)c2ccccc21 (stereo not drawn)", 14.67],
  ["CCc1cccc2c3c([nH]c12)C(CC)(CC(=O)O)OCC3 (stereo not drawn)", 15.17],
  ["O=c1[nH]cc(F)c(=O)[nH]1", 15.17],
  ["O=C1CCc2cc(OCCCCc3nnnn3C3CCCCC3)ccc2N1", 16.17],
  ["C[C@]12CCC(=O)C=C1CC[C@@H]1[C@@H]2C(=O)C[C@@]2(C)[C@H]1CC[C@]2(O)C(=O)CO", 15.17],
  ["COC(=O)c1ccc(O)cc1", 16.33],
  ["CCc1ccc(C(=O)C(C)CN2CCCCC2)cc1 (stereo not drawn)", 15.5],
  ["COc1c(C)c2c(c(O)c1C/C=C(\\C)CCC(=O)OCCN1CCOCC1)C(=O)OC2 [MYCOPHENOLATE MOFETIL]", 17.33]
]}

----------
Organism: Rattus norvegicus
Experiment: DrugMatrix - Regimen: Daily Repeat
Assay type: toxicity, organism-based, Sprague-Dawley
Set-up: regimen Daily Repeat, gender Male, age 6-8 weeks
Conditions: in vivo, po, 0 mg/kg, 120 h, tissue Plasma, route oral GAVAGE, dose level Control, time 5 day, […]
Form field: PHOSPHORUS (one value per entry).
quantity.kind: PHOSPHORUS (mg/dL)

{"columns": ["molecule", "observed"],
 "data": [
  ["CC(=O)[C@H]1CC[C@H]2[C@@H]3CCC4=CC(=O)CC[C@]4(C)[C@H]3CC[C@]12C", 10],
  ["CC(C)(Oc1ccc(CCNC(=O)c2ccc(Cl)cc2)cc1)C(=O)O [BEZAFIBRATE]", 12.06],
  ["COC1=CC(=O)C[C@@H](C)[C@]12Oc1c(Cl)c(OC)cc(OC)c1C2=O", 11.08],
  ["Cn1cnc([N+](=O)[O-])c1Sc1ncnc2nc[nH]c12", 11.13]
]}

----------
Organism: Rattus norvegicus
Assay: DrugMatrix - Regimen: Daily Repeat
Type: toxicity, organism-based, Sprague-Dawley
Set-up: regimen Daily Repeat, gender Male, age 6-8 weeks
Conditions: in vivo, po, 0 mg/kg, 72 h, tissue Blood, route oral GAVAGE, dose level Control, time 3 day, vehicle .5 % CMC
quantity.kind: MEAN CORPUSCULAR HEMOGLOBIN (pg)

{"columns": ["compound.structure.string", "observed"],
 "data": [
  ["CCC[C@@H]1C[C@@H](C(=O)N[C@@H]([C@H]2O[C@H](SC)[C@H](O)[C@@H](O)[C@H]2O)[C@@H](C)O)N(C)C1", 24.67],
  ["O=C1CCc2cc(OCCCCc3nnnn3C3CCCCC3)ccc2N1", 19.72],
  ["CC(C)[C@H](N)C(=O)OCCOCn1cnc2c(=O)[nH]c(N)nc21", 24.6]
]}

----------
Form field: CHOLESTEROL (one value per entry).
Species on record: Rattus norvegicus
Experiment: DrugMatrix - Regimen: Daily Repeat
Type: toxicity, organism-based, Sprague-Dawley
Design: regimen Daily Repeat, gender Male, age 6-8 weeks
Details: in vivo, po, 0 mg/kg, 120 h, tissue Plasma, route oral GAVAGE, dose level Control, time 5 day, vehicle .5 % CMC

{"columns": ["compound", "unit.tag", "CHOLESTEROL"],
 "data": [
  ["CCC[C@@H]1C[C@@H](C(=O)N[C@@H]([C@H]2O[C@H](SC)[C@H](O)[C@@H](O)[C@H]2O)[C@@H](C)O)N(C)C1", "mg/dL", 71],
  ["COC(=O)c1ccc(O)cc1", "mg/dL", 57],
  ["CCc1cccc2c3c([nH]c12)C(CC)(CC(=O)O)OCC3 (stereo unspecified)", "mg/dL", 66.33],
  ["CC(/C=C1\\SC(=S)N(CC(=O)O)C1=O)=C\\c1ccccc1", "mg/dL", 71.33],
  ["NCC(=O)O", "mg/dL", 57.17],
  ["O=c1[nH]cc(F)c(=O)[nH]1", "mg/dL", 67],
  ["COc1c(C)c2c(c(O)c1C/C=C(\\C)CCC(=O)OCCN1CCOCC1)C(=O)OC2 [MYCOPHENOLATE MOFETIL]", "mg/dL", 71.33],
  ["Brc1ccccc1", "mg/dL", 67.67],
  ["Cc1c(-c2ccccc2)oc2c(C(=O)OCCN3CCCCC3)cccc2c1=O [FLAVOXATE]", "mg/dL", 63.67],
  ["CC1(C)[C@H]2CC[C@]1(C)C(=O)C2 [(-)-CAMPHOR]", "mg/dL", 71.33],
  ["CCc1ccc(C(=O)C(C)CN2CCCCC2)cc1 (stereo unspecified)", "mg/dL", 71.5],
  ["O=C1CCc2cc(OCCCCc3nnnn3C3CCCCC3)ccc2N1", "mg/dL", 61],
  ["CC(C)[C@H](N)C(=O)OCCOCn1cnc2c(=O)[nH]c(N)nc21", "mg/dL", 72.83],
  ["O=c1cc(-c2ccccc2)oc2c1ccc1ccccc12", "mg/dL", 47.6],
  ["CN1CCC[C@@H]1CCO[C@](C)(c1ccccc1)c1ccc(Cl)cc1", "mg/dL", 71.33],
  ["CC[C@H]1OC(=O)[C@H](C)[C@@H](O[C@H]2C[C@@](C)(OC)[C@@H](O)[C@H](C)O2)[C@H](C)[C@@H](O[C@@H]2O[C@H](C)C[C@H](N(C)C)[C@H]2O)[C@](C)(O)C[C@@H](C)/C(=N\\OCOCCOC)[C@H](C)[C@@H](O)[C@]1(C)O", "mg/dL", 66.33]
]}

----------
Form field: LEUKOCYTE COUNT (one value per entry).
Species: Rattus norvegicus
Assay: DrugMatrix - Regimen: Daily Repeat
Format: toxicity, organism-based, Sprague-Dawley
Design: regimen Daily Repeat, gender Male, age 6-8 weeks
Details: in vivo, po, 0 mg/kg, 120 h, tissue Blood, route oral GAVAGE, dose level Control, time 5 day, vehicle 100 % WATER

{"columns": ["compound", "LEUKOCYTE COUNT, x10E3/uL"],
 "data": [
  ["CNCCC=C1c2ccccc2CCc2ccccc21", 15.87],
  ["CN1CCC[C@H]1c1cccnc1", 14.75],
  ["COc1cccc(C2(O)CCCCC2CN(C)C)c1 (stereo not drawn)", 8.73]
]}

----------
Species on record: Rattus norvegicus
Experiment: DrugMatrix - Regimen: Daily Repeat
Format: toxicity, organism-based, Sprague-Dawley
Parameters: regimen Daily Repeat, gender Male, age 6-8 weeks
Conditions: in vivo, po, 0 mg/kg, 120 h, tissue Blood, route oral GAVAGE, dose level Control, time 5 day, vehicle 100 % WATER
Form field: ABSOLUTE MONOCYTE (one value per entry).

{"columns": ["molecule", "ABSOLUTE MONOCYTE, CELLS/uL"],
 "data": [
  ["CN1CCC[C@H]1c1cccnc1 [NICOTINE]", 180.83],
  ["NNC(=O)c1ccncc1 [ISONIAZID]", 465.5],
  ["CC(CCc1ccccc1)NCC(O)c1ccc(O)c(C(N)=O)c1 (stereo not given) [LABETALOL]", 177.67],
  ["NCC1(CC(=O)O)CCCCC1 [GABAPENTIN]", 106.17],
  ["O=C1NC(=O)C(c2ccccc2)(c2ccccc2)N1 [PHENYTOIN]", 351],
  ["Cc1cc(NS(=O)(=O)c2ccc(N)cc2)no1 [SULFAMETHOXAZOLE]", 56.33],
  ["Clc1ccc(C(c2ccccc2Cl)C(Cl)Cl)cc1 (stereo not given) [MITOTANE]", 106.33],
  ["NC(=O)c1ncn([C@@H]2O[C@H](CO)[C@@H](O)[C@H]2O)n1 [RIBAVIRIN]", 205.33],
  ["COc1ccc(C(CN(C)C)C2(O)CCCCC2)cc1 (stereo not given) [VENLAFAXINE]", 56.33],
  ["C[C@]12Cc3c[nH]nc3C[C@@H]1CC[C@@H]1[C@@H]2CC[C@@]2(C)[C@H]1CC[C@]2(C)O [STANOZOLOL]", 58.33],
  ["CC(C)(S)[C@@H](N)C(=O)O [PENICILLAMINE]", 15.83],
  ["Cn1cnc([N+](=O)[O-])c1Sc1ncnc2nc[nH]c12 [AZATHIOPRINE]", 82.67],
  ["CN1CCN(C(=O)OC2c3nccnc3C(=O)N2c2ccc(Cl)cn2)CC1 (stereo not given) [ZOPICLONE]", 131.33],
  ["CC1(C)S[C@@H]2[C@H](NC(=O)[C@H](N)c3ccc(O)cc3)C(=O)N2[C@H]1C(=O)O [AMOXICILLIN]", 122.33],
  ["Nc1ccc(S(=O)(=O)Nc2ccnn2-c2ccccc2)cc1 [SULFAPHENAZOLE]", 158]
]}
